target.or.system: huCD28 (human, UniProt P10747 19-152, limits assumed)
measurement.notes: SPR, OAA format
reported.endpoint: koff (s⁻¹)
Unit s⁻¹ implied. Number only.

[
  {
    "binder": "v37847 (antibody, V domains shown, OAA format; also called huTN228 P1058A (VH) OAA) VH: QVQLQESGPGLVKPSETLSLTCAVSGFSLTSYGVHWIRQPPGKGLEWLGVIWAGGGTNFNSALMSRLTISEDTSKNQVSLKLSSVTAADTAVYYCARDRAYGNYLYAMDYWGQGTLVTVSS VL: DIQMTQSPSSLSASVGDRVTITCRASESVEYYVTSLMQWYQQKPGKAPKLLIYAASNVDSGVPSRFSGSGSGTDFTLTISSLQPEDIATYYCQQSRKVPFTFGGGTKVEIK",
    "koff, s⁻¹": 0.00626
  }
]

Would you kindly look at the next entry?
Query (binder): v37855 (antibody, V domains shown, OAA format as v34891; also called huTN228 G1111A (VH) OAA) VH: QVQLQESGPGLVKPSETLSLTCAVSGFSLTSYGVHWIRQPPGKGLEWLGVIWPGGGTNFNSALMSRLTISEDTSKNQVSLKLSSVTAADTAVYYCARDRAYANYLYAMDYWGQGTLVTVSS VL: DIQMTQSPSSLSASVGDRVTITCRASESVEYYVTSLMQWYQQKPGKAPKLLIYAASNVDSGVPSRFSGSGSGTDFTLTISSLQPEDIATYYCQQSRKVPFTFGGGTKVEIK ; field requested: koff
0.00342
